Hello, the source for this data is ChEMBL document CHEMBL1201862, in case you need it.

# System: SF-295
# Test Summary: NCI tumour cell line growth inhibition, 48 h
Active and inactive are the calls of the source. Rule as the data show it: active = GI50 up to about 1.1 µM and inactive = higher.
Parameter: GI50

Before answering, review these 6 worked examples.
CCOC(=O)c1cccc(NC(=O)CI)c1 | 2.47 µM (inactive)
Nc1cc(N2CCOCC2)nc(=O)n1-c1ccc(Cl)cc1 | > 100 µM (inactive)
Cc1cccc(C)c1N1C(=O)C(=O)C(c2nc3ccccc3s2)/C(=N/NC(=O)NN)C1=O (centres undefined) | > 100 µM (inactive)
CO/N=C(\C(=O)[N-]n1cn[n+](CC(=O)OC(C)(C)C)c1)c1csc(NC(c2ccccc2)(c2ccccc2)c2ccccc2)n1 | > 10 µM (inactive)
CC(C)(CN1CCCCC1)C(=O)/C=C/c1ccc(Cl)c(Cl)c1 | 2.45 µM (inactive)
CC1C(=O)C(C)C(c2cccs2)N(N=O)C1c1cccs1 (centres undefined) | > 100 µM (inactive)

For CCCCCCCC(=O)N1C2CC3CCC2(CS1(=O)=O)C3(C)C (centres undefined) , what is its reported GI50?
22.2 µM (inactive)

Another compound: `C=C1c2ccccc2Oc2nc3nc(N)c(C#N)c(N)c3c(N)c21`
30.3 µM (inactive)

Would you mind doing `c1ccc(-c2nnn(CCN3CCCCC3)n2)cc1` as well?
> 100 µM (inactive)

Follow-up item: `FC(F)(Sc1ccccc1)c1nc2ccccc2o1`
48.5 µM (inactive)

Subsequent entry: `O=C(O)c1ccc(Cc2ccccc2C(=O)O)cc1`
> 100 µM (inactive)

What about this compound? `Cc1nc2ccncc2[nH]1`
> 100 µM (inactive)

====

Collected GI50 values appear next to each entry.
# System: MOLT-4
# Test Summary: NCI tumour cell line growth inhibition, 48 h
Activity calls are given as the source filed them. Rule as the data show it: active = GI50 up to about 1.1 µM and inactive = higher.

Consider the worked cases shown below.
Cc1cccc(C(C)C)c1N1C(=O)C(=O)C(c2nc3ccccc3o2)C(=O)C1=O | 24.7 µM (inactive)
COc1ccc(C(=O)/C=C/c2cc(O)c(O)cc2F)c(OC)c1 | 3.71 µM (inactive)
COC(=O)C1=CC2OC13CC1CCC3(C2=O)C1(C)C (centres undefined) | 14 µM (inactive)

Consider now this further compound.
Given the compound `Nc1ccc2ncc(Nc3ccc(Cl)c(Cl)c3)nc2c1` , what is its reported GI50?
17.7 µM (inactive)

====

As shown below, each of these compounds has a reported GI50 value.
# Test system: MDA-MB-435
# Test Summary: NCI tumour cell line growth inhibition, 48 h
Active and inactive are the calls of the source. Cut-off read from the data, not from the text of the source: active = GI50 up to about 1.1 µM and inactive = higher.

Solved cases below.
O=C(CC(C(=O)c1cccs1)c1ccsc1)c1ccc(Cl)s1 (centres undefined) | 85.7 µM (inactive)
COC(=O)[C@H](Cc1ccccc1)NC(=O)c1ccc(CNC(=O)/C=C/c2ccc(OCc3ccccc3)cc2)cc1 | 2.62 µM (inactive)
CCOP(=O)(/C=C\n1cc(C)c(=O)[nH]c1=O)OCC | > 100 µM (inactive)
CN(CCNC(=O)c1cn(C)c2c1ccc1ccccc12)CCNC(=O)c1cn(C)c2c1ccc1ccccc12 | 2.2 µM (inactive)
C[N+]1(C)C/C(=C\C=C\c2ccccc2)C(=O)/C(=C/C=C/c2ccccc2)C1 | 4.28 µM (inactive)

I have this compound here, `CCOC(=O)c1nc2cc(C(F)(F)F)ccc2nc1Nc1ccc(Cl)c(Cl)c1` , and I need its recorded GI50.
62.7 µM (inactive)

# iterate: C[N+]1(C)C2CC(OC(=O)C(CO)c3ccccc3)CC1C1OC12 (centres undefined)
> 100 µM (inactive)

# repeat for CC1(C)C2CCC(=O)C1CC2 (centres undefined)
> 100 µM (inactive)

Same thing, different compound: `O=C(O)c1ccc(Cc2ccccc2C(=O)O)cc1`
> 100 µM (inactive)

Now consider `C/C(=N\Nc1nc2ccccc2[nH]1)c1cccc[n+]1[O-]` .
> 100 µM (inactive)

====

# Tested on: DU-145
# Test Summary: NCI tumour cell line growth inhibition, 48 h
Active and inactive are the calls of the source. No stated cut-off is given here; in the data, active = GI50 up to about 1.1 µM and inactive = higher.
Parameter: GI50

Examples with answers:
C=C1CCC[C@@H](C)C(O)[C@@H]2OC(=O)C(=C)[C@@H]2C[C@@H](OC(C)=O)[C@@]2(C)CC[C@@H]1O2 (stereo partly specified) | 7.66 µM (inactive)
CCc1c(N=[N+]=[N-])c2ccccc2oc1=O | > 100 µM (inactive)
O=C1Nc2ccccc2/C1=C\c1c(Cl)[nH]c2ccccc12 | 3.35 µM (inactive)
Oc1ccc(CCNCc2cc3c(cc2Br)OCO3)cc1 | > 100 µM (inactive)
Cc1ccc2nc(N/N=C/c3cccc(C)n3)cc(C)c2c1 | 17.3 µM (inactive)
CN1CC[C@]2(c3cccc(O)c3)CC(=O)/C(=C/c3ccc(Cl)c(Cl)c3)[C@@H]1C2 | 1.65 µM (inactive)

Fill in the blank: the reported GI50 of `O=C1/C(=N\NC(=S)Nc2ccc(Cl)cc2)c2cc([N+](=O)[O-])ccc2N1CN1CCOCC1` is ____.
10.5 µM (inactive)

====

# Test system: COLO 205
# Test Summary: NCI tumour cell line growth inhibition, 48 h
Activity calls are given as the source filed them. Rule as the data show it: active = GI50 up to about 1.1 µM and inactive = higher.
Parameter: GI50

# annotated cases, reported GI50 shown
O=C(CSc1nnc(-c2ccc(/N=C\c3ccc(Cl)cc3)cc2)o1)Nc1ccccc1Cl | > 100 µM (inactive)
CCCCCCCCCCCCCCCCCCOP1(=O)OCCO1 | > 100 µM (inactive)
Cc1ccc([N+](=O)[O-])cc1S(=O)(=O)Nc1ccc(C2=NN(S(=O)(=O)c3cc([N+](=O)[O-])ccc3C)C(c3ccco3)C2)cc1 (stereo not given) | 39.4 µM (inactive)

// lookup GI50 for `COC(=O)C/N=C1\NC(=S)N(Cc2ccc(OC)cc2)C12CCCC2`
> 100 µM (inactive)

Note, next up: O=C1OC(CC(=O)c2ccc(Cl)cc2)C(Cl)=C1Cl (stereo not given)
> 100 µM (inactive)

// same read-out, input: `O=C1NC(Nc2cccc(Cl)c2)=N/C1=C\c1ccc(Cl)c(Cl)c1`
3.88 µM (inactive)

And then CC1C[C@@H]2C(=O)NC(=O)[C@@H]2c2c1c1ccccc1n2C (stereo not given in full) , what is it?
> 100 µM (inactive)

Same question for `COc1ccc(/C=C2/S/C(=N\c3ccccc3)N(NC(=O)Cc3ccccc3)C2=O)c(OC)c1` please.
> 100 µM (inactive)

Another compound: COc1ccccc1Cc1ccc(C2C=CC3(CC(=O)C=C3C)C(=O)C2)o1 (stereo not given)
23.2 µM (inactive)

Check COc1ccccc1C1C(Cl)C(=O)N1n1cnc2ccccc2c1=O (stereo not given) too.
> 100 µM (inactive)

Also need `Cc1ccc(-c2nc3n(c2/C=N\N=C(N)N)CCS3)cc1` , thanks.
14.5 µM (inactive)

====

List of GI50 values.
# Test system: KM12
# Test Summary: NCI tumour cell line growth inhibition, 48 h
Calls of active or inactive are those of the source. No stated cut-off is given here; in the data, active = GI50 up to about 1.1 µM and inactive = higher.

Example results:
CCOC(=O)[C@H]1C[C@]23CN(C(=O)OC(C)(C)C)CC[C@H]2CCC2(SCCCS2)[C@@H]3N1C | 33.3 µM (inactive)
O=C(c1ccccc1)c1ccc2nc3n(c2c1)C(c1c(Cl)cccc1Cl)SC3 (centres undefined) | 2.87 µM (inactive)
CC1(c2ccccc2)CC(c2ccccc2)=NO1 (centres undefined) | > 100 µM (inactive)

Quick one: GI50 of `O=c1nc(NC(c2ccccc2)(c2ccccc2)c2ccccc2)ccn1CCO` ?
60.3 µM (inactive)

====

# Test system: SR
# Test Summary: NCI tumour cell line growth inhibition, 48 h
Activity calls are given as the source filed them. Rule as the data show it: active = GI50 up to about 1.1 µM and inactive = higher.
Parameter: GI50

COc1ccc(/C(=N/NC(N)=O)C2(O)C(=O)Nc3ccc([N+](=O)[O-])cc32)cc1 (configuration not stated) | 17.4 µM (inactive)
CC1C2=C(CCCC2=O)N(c2ccc(Cl)cc2)C2=C1C(=O)CCC2 | 39.2 µM (inactive)
COC(=O)Nc1nc2cc(S(=O)(=O)N3CCOCC3)ccc2[nH]1 | 51.1 µM (inactive)
CC1(C)O[C@@H](CC/C=C/CO)[C@H](CC/C=C/CO)O1 | 74.6 µM (inactive)
CCOC(=O)[C@H]1C[C@]23CN(C(=O)OC(C)(C)C)CC[C@H]2CCC2(SCCCS2)[C@@H]3N1C | 24 µM (inactive)

// map COc1ccc(C(O)/C(=N/N)c2nc3ccc(Cl)cc3nc2O)cc1 (configuration not stated) to recorded GI50 (system: SR)
> 100 µM (inactive)

Try the molecule COC(=O)CCC(NC(=S)N/N=C/c1ccccn1)C(=O)OC (configuration not stated)
59.2 µM (inactive)

====

# Test system: PC-3
# Test Summary: NCI tumour cell line growth inhibition, 48 h
The source made the active and inactive calls. Cut-off read from the data, not from the text of the source: active = GI50 up to about 1.1 µM and inactive = higher.
The categories you may choose from are 1.0 for active, 0.0 for inactive

O=C1N/C(=N\N=C\c2ccccc2)C2(CCCCC2)O1 | 0.0
Clc1n[nH]c2ccccc12 | 0.0
Nc1ccccc1/N=C/c1cc2cc([N+](=O)[O-])ccc2s1 | 0.0

Here is another molecule to look at.
Please let me know the test result on file for `Nc1ncnc2c1ncn2C(=O)NC12CC3CC(CC(C3)C1)C2` .
0.0
